Attribution: patent US9670227B2

target: Mcl-1 protein (UniProtKB primary accession number: Q07820) (Homo sapiens, UniProt Q07820); experiment: Inhibition of Mcl-1 by fluorescence polarisation, Method 1; assay type: binding; conditions: fluorescence polarisation; Method 1, or Method 2; read-out: IC50 (M) Mcl-1 FP
Sequence (Q07820 whole entry): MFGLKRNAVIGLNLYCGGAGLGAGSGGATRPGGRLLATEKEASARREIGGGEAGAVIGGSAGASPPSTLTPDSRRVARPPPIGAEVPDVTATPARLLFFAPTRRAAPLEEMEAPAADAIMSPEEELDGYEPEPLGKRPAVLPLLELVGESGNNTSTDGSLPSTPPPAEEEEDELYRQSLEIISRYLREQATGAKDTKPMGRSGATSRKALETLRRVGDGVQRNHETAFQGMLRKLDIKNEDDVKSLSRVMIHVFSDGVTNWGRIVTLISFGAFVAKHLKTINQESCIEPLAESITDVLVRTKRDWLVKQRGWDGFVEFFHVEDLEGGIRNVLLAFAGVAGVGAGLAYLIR
ATTRIBUTE MEASURED: IC50 (M)

Consider the following illustrative entries.
COc1ccccc1-n1nccc1COc1ccccc1CC(Oc1ncnc2sc(-c3ccc(F)cc3)c(-c3ccc(OCCN4CCN(C)CC4)c(Cl)c3C)c12)C(=O)O (stereo not drawn) ... 3.78e-09
COc1cnc(C)cc1-c1nccc(COc2ccccc2CC(Oc2ncnc3sc(-c4ccc(F)cc4)c(-c4ccc(OCCN5CCN(C)CC5)c(Cl)c4C)c23)C(=O)O)n1 (stereo not drawn) ... 9.48e-10
COc1cc(-c2nccc(COc3ccccc3CC(Oc3ncnc4sc(-c5ccc(F)cc5)c(-c5ccc(OCCN6CCN(C)CC6)c(Cl)c5C)c34)C(=O)O)n2)ccn1 (stereo not drawn) ... 9.48e-10
Cc1cc(-c2nccc(COc3ccccc3CC(Oc3ncnc4sc(-c5ccc(F)cc5)c(-c5ccc(OCCN(C)C)c(Cl)c5C)c34)C(=O)O)n2)c(C)cn1 (stereo not drawn) ... 9.48e-10

[1] CCc1sc2ncnc(OC(Cc3ccccc3)C(=O)O)c2c1-c1ccc(OCCCn2ccnc2)c(Cl)c1C (stereo not drawn)
[2] Cc1cc(-c2nccc(COc3ccccc3C[C@@H](Oc3ncnc4sc(-c5ccc(F)cc5)c(-c5ccc(OCCN6CCN(C)CC6)c(Cl)c5C)c34)C(=O)O)n2)cnc1C
# return whichever of 1 and 2 has the smaller IC50 // return label of chosen record
2
(2: 1.27e-09 M, 1: 1.4e-08 M)

====

test system: H929 multiple myeloma tumour line; assay: In vitro cytotoxicity, Microculture Tetrazolium Assay; type: cell-based; details: Homo sapiens, NCI-H929, 48 h, H929 cells, 48 hours exposure, MTT; read-out: IC50 (μM) MTT H929
ATTRIBUTE MEASURED: IC50 (µM)
Report only the number, with the unit µM understood.

Cc1c(-c2c(-c3ccco3)sc3ncnc(OC(Cc4ccccc4OCc4cn(C)cn4)C(=O)O)c23)ccc(OCCN2CCN(C)CC2)c1Cl (centres unmarked) ... 1.6
COc1cc(COc2ccccc2CC(Oc2ncnc3sc(-c4ccc(F)cc4)c(-c4ccc(OCCN5CCN(C)CC5)c(Cl)c4C)c23)C(=O)O)nc(OC)n1 (centres unmarked) ... 0.145
Cc1c(-c2c(-c3ccc(F)cc3)sc3ncnc(OC(Cc4ccccc4OCc4ccnc(OCCC(F)(F)F)n4)C(=O)O)c23)ccc(OCCN2CCN(C)CC2)c1Cl (centres unmarked) ... 0.008

Name the reported IC50 value associated with the compound COc1ccccc1CC(Oc1ncnc2sc(-c3cc(F)c(F)c(OC)c3)c(-c3ccc(OCCN4CCN(C)CC4)c(Cl)c3C)c12)C(=O)O (centres unmarked)
0.417

Reported IC50 for Cc1c(-c2c(-c3ccco3)sc3ncnc(OC(Cc4ccccc4OCc4ccnc(C(F)(F)F)n4)C(=O)O)c23)ccc(OCCN2CCN(C)CC2)c1Cl (centres unmarked) : what is it?
0.015

Any idea what its IC50 is? The compound is Cc1cc(COc2ccccc2CC(Oc2ncnc3sc(-c4ccc(F)cc4)c(-c4ccc(OCCN5CCN(C)CC5)c(Cl)c4C)c23)C(=O)O)no1 (centres unmarked)
0.363

Requested read-out: IC50. Entry: Cc1c(-c2c(-c3ccco3)sc3ncnc(OC(Cc4ccccc4OCc4ncc(-c5ccccc5)cn4)C(=O)O)c23)ccc(OCCN2CCN(C)CC2)c1Cl (centres unmarked)
0.25

Entry under review: Cc1c(-c2c(-c3ccco3)sc3ncnc(OC(Cc4ccccc4OCc4ccc(Cl)cn4)C(=O)O)c23)ccc(OCCN2CCN(C)CC2)c1Cl (centres unmarked) . Reported IC50?
0.116

Report IC50 for COc1ccccc1-c1nccc(COc2ccccc2CC(Oc2ncnc3sc(-c4ccc(OCCN5CCOCC5)cc4)c(-c4ccc(OCCN5CCN(C)CC5)c(Cl)c4C)c23)C(=O)O)n1 (single isomer, unassigned) please.
0.019

So what does the record say about IC50 for COc1ccc(Cl)cc1CC(Oc1ncnc2sc(-c3ccc(Cl)o3)c(-c3ccc(OCCN4CCN(C)CC4)c(Cl)c3C)c12)C(=O)O (centres unmarked) ?
0.188

Requested read-out: IC50. Entry: COc1nccc(COc2ccccc2CC(Oc2ncnc3sc(-c4ccc(F)c(F)c4)c(-c4ccc(OCCN5CCN(C)CC5)c(Cl)c4C)c23)C(=O)O)n1 (centres unmarked)
0.04

What value of measured IC50 is listed for COCCOc1ccccc1CC(Oc1ncnc2sc(-c3ccco3)c(-c3ccc(OCCN4CCN(C(C)C)CC4)c(Cl)c3C)c12)C(=O)O (centres unmarked) ?
0.107

// lookup IC50 for CCc1sc2ncnc(OC(Cc3ccccc3)C(=O)O)c2c1-c1cc2nc(CN3CCN(C)CC3)oc2c(Cl)c1C (centres unmarked)
21

Tell me the measured IC50 of COc1ccccc1CC(Oc1ncnc2sc(-c3ccc(F)cc3)c(-c3ccc(OCCN4CCN(C)CC4)c(Cl)c3Cl)c12)C(=O)O (centres unmarked) , please.
0.498

Entry COCCOc1ccccc1CC(Oc1ncnc2sc(-c3ccc(F)o3)c(-c3ccc(OCCN4CCN(C)CC4)c(Cl)c3C)c12)C(=O)O (centres unmarked) has what IC50?
0.058

Fill in the blank: the reported IC50 of Cc1c(-c2c(-c3ccc(F)c(F)c3)sc3ncnc(OC(Cc4ccccc4OCc4ccnc(C(F)(F)F)n4)C(=O)O)c23)ccc(OCCN2CCN(C)CC2)c1Cl (centres unmarked) is ____.
0.042

====

molecular target: Mcl-1 protein (UniProtKB primary accession number: Q07820) (Homo sapiens, UniProt Q07820); assay: Inhibition of Mcl-1 by fluorescence polarisation, Method 1; assay type: binding; settings: fluorescence polarisation test; Method 2 values are underlined in the patent (underlining not visible here); read-out: IC50 (M) Mcl-1 FP
ATTRIBUTE MEASURED: IC50 (M)

CCn1nccc1COc1ccccc1CC(Oc1ncnc2sc(-c3ccc(F)cc3)c(-c3ccc(OCCN4CCN(C)CC4)c(Cl)c3C)c12)C(=O)O (stereo not drawn) ... 1.6e-08

[P] Cc1c(-c2c(-c3ccc(F)cc3)sc3ncnc(OC(Cc4ccccc4OCc4ccn[nH]4)C(=O)O)c23)ccc(OCCN2CCN(C)CC2)c1Cl (stereo not drawn)
[Q] Cc1c(-c2c(-c3ccco3)sc3ncnc(O[C@@H](C(=O)O)[C@@H](O)c4ccccc4)c23)ccc(OCCN2CCN(C)CC2)c1Cl (single isomer, unassigned) [Example 343]
Among P and Q , whose measured IC50 is the smaller figure? Answer by quoting the chosen item's label.
P

====

target: Mcl-1 protein (UniProtKB primary accession number: Q07820) (Homo sapiens, UniProt Q07820); assay: Inhibition of Mcl-1 by fluorescence polarisation, Method 1; assay type: binding; conditions: fluorescence polarisation test; Method 2 values are underlined in the patent (underlining not visible here); read-out: IC50 (M) Mcl-1 FP
ATTRIBUTE MEASURED: IC50 (M)

A selection of reference data follows.
COc1ccc(COc2ccccc2CC(Oc2ncnc3sc(-c4ccco4)c(-c4ccc(OCCN5CCN(C)CC5)c(Cl)c4C)c23)C(=O)O)nc1 (stereo not drawn) [Example 233] ... 3.4e-09
COc1ccccc1CC(Oc1ncnc2sc(-c3ccco3)c(-c3ccc(OC4CCN(C)CC4)c(Cl)c3C)c12)C(=O)O (stereo not drawn) [Example 304] ... 1.1e-08
Cc1c(-c2c(-c3ccc(F)cc3)sc3ncnc(OC(Cc4ccccc4OCc4ccnc(OCC(F)(F)F)n4)C(=O)O)c23)ccc(OCCN(C)C)c1Cl (stereo not drawn) [Example 131] ... 7.9e-09
Cc1c(-c2c(-c3ccc(F)cc3)sc3ncnc(OC(Cc4ccccc4OCc4cnccn4)C(=O)O)c23)ccc(OCC2CCCN2C)c1Cl (stereo not drawn) [Example 143] ... 2.6e-08
COc1ncc(COc2ccccc2CC(Oc2ncnc3sc(-c4ccco4)c(-c4ccc(OCCN5CCN(C)CC5)c(Cl)c4C)c23)C(=O)O)cn1 (stereo not drawn) [Example 274] ... 7.7e-09

[I] Cc1c(-c2c(-c3ccco3)sc3ncnc(OC(Cc4cccc(F)c4F)C(=O)O)c23)ccc(OCCN2CCN(C)CC2)c1Cl (stereo not drawn) [Example 350]
[II] Cc1cnccc1-c1nccc(COc2ccccc2CC(Oc2ncnc3sc(-c4ccc(F)cc4)c(-c4ccc(OCCN5CCN(C)CC5)c(Cl)c4C)c23)C(=O)O)n1 (stereo not drawn) [Example 120]
# min-compare on IC50 between I and II Bench note: the answer is the label of the chosen record.
II
(II: 3.8e-09 M, I: 2.8e-08 M)

[I] CCn1nccc1COc1ccccc1CC(Oc1ncnc2sc(-c3ccc(Cl)o3)c(-c3ccc(OCCN4CCN(C)CC4)c(Cl)c3C)c12)C(=O)O (stereo not drawn) [Example 372]
[II] Cc1c(-c2c(-c3ccc(F)cc3)sc3ncnc(OC(Cc4ccccc4OCC(F)F)C(=O)O)c23)ccc(OCCN2CCN(C)CC2)c1Cl (stereo not drawn) [Example 4]
Among I and II , whose measured IC50 is the smaller figure? I would appreciate it if you answered with the label of your choice.
I

[A] COc1ccccc1CC(Oc1ncnc2sc(-c3ccco3)c(-c3ccc(OC4CCCN(C)C4)c(Cl)c3C)c12)C(=O)O (single isomer, unassigned) [Example 302]
[B] COc1ccccc1CC(Oc1ncnc2sc(-c3ccco3)c(-c3ccc(OCCC4CN(C)CCO4)c(Cl)c3C)c12)C(=O)O (single isomer, unassigned) [Example 318]
Just tell me: smaller IC50 value, A or B ? // caller expects the label of the chosen entry
A
(A: 1.4e-08 M, B: 3e-08 M)
